Values compiled from PubChem BioAssay AID504847.

Biological target: Vitamin D3 receptor (Homo sapiens) (UniProt P11473)
Sequence (P11473 whole entry, looked up): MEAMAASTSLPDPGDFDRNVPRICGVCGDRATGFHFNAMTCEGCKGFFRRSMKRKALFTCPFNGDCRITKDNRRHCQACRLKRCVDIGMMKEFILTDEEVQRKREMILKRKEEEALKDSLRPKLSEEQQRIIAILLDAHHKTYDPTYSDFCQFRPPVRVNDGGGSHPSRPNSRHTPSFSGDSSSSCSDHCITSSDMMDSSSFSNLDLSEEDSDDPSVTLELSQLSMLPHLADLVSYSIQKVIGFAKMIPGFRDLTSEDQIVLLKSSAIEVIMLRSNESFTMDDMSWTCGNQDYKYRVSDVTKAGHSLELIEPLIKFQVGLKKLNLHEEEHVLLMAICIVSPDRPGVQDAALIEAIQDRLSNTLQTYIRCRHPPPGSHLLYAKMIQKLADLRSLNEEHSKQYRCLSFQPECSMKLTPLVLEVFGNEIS
Assay: Inhibitors of the vitamin D receptor (VDR): qHTS; also: % is scaled to controls: 0 for no effect and ±100 for the full control effect
Conditions: VDR-SRC2-3 peptide fluorescence polarization, 2 h; active compounds read low
Description: The vitamin D receptor (VDR) is a ligand-activated transcription factor and is partially responsible for the regulation of the endocrine system. […] In a collaboration between the University of Wisconsin, Milwaukee and the NIH Chemical Genomics Center (NCGC) a HTS-compatible enzymatic assay was developed. The assay uses fluorescence polarization as its read-out to measure the inhibition between VDR and coregulator peptide SRC2-3 exerted by small molecules. […]
Hit rate of the full screen: of about 400,000 compounds, about 3,700 (0.93%) were called active. Another 3% or so got no clear call; they are omitted. Shown is part of a subset that was picked to be rich in actives.
Form field: max response, negative = inhibition (one value per entry).
Write down the numeric answer in % and omit the unit.

Example entries begin here.
1) O=S(=O)(c1cccc(C(F)(F)F)c1)N1CCN(c2nc(-c3cccs3)nc3ccccc23)CC1	3.96
2) CC(C)(C)c1ccc(C(=O)Nc2ccc3c(c2)CCCN3C(=O)c2cccs2)cc1	-1.02
3) Cc1ccc(-c2nn3c(=O)cc(CN4CCN(S(=O)(=O)c5ccc(Cl)cc5)CC4)nc3s2)cc1	6.31

State, in one line, measured max response, negative = inhibition of Cc1ccc(NC(=O)Cc2ccc(NC(=O)N3CCCCc4ccccc43)cc2)cc1
6.32

Report max response, negative = inhibition, nothing else, for this compound: O=C(NCC1COc2ccccc2O1)C1(c2ccccc2)CCCC1 (stereo unspecified)
-20

Supply recorded max response, negative = inhibition for CSc1nc(Nc2ccc(F)cc2)cc(-c2ccccc2)n1 here.
5.7

Determine from records and report max response, negative = inhibition for CN(C)c1nccc(NCc2ccccc2)c1C#N
28.6

// Input: CCn1cc(C(=O)NCC2COc3ccccc3O2)c2cc(OC)c(OC)cc2c1=O (stereo unspecified) . Output its max response, negative = inhibition only.
-12.1

Give the value of max response, negative = inhibition reported for the following: Cc1cccn2c(=O)c3cc(C(=O)NC4CCCCC4)sc3nc12
8.23

Supply measured max response, negative = inhibition of Cc1cccn2c(=O)c(/C=C(\C#N)C(N)=O)c(N3CCCCCC3)nc12 in your reply.
-6.66

Read the entry CN(C)c1nc(NN)nc(Nc2ccc(F)cc2)n1 and write its reported max response, negative = inhibition.
-11.3

* * *

Molecular target: Vitamin D3 receptor (Homo sapiens)
Test: Inhibitors of the vitamin D receptor (VDR): qHTS; also: % is scaled to controls: 0 for no effect and ±100 for the full control effect
Settings: VDR-SRC2-3 peptide fluorescence polarization, 2 h; active compounds read low
About 3,700 (0.93%) of roughly 400,000 compounds were called active. About 3% were inconclusive and are not listed. Only a selection was taken, and actives are over-represented in it overall.
In this section we review reported max response, negative = inhibition values for a set of molecules.
Numbers only; they are read as %.

Example results:
1. Cc1ccc(Sc2cc(C(=O)c3ccccc3C(=O)O)ccc2[N+](=O)[O-])cc1	-16.9
2. COc1ccc(C(=O)NC(C)CCc2ccccc2)c(OC)c1 (configuration not stated)	-15.7
3. C[C@H]1CCC[C@@]2(C)CCCC[C@]12O	0.107
4. CCS(=O)(=O)c1ncc(N(Cc2ccc(F)cc2)Cc2ccco2)c(C(=O)Nc2cc(C)ccc2C)n1	-5.22
5. CCOC(=O)c1ccc(NC(=O)c2nc(SCc3ccc(F)cc3)ncc2Cl)cc1	-10.3

Please give measured max response, negative = inhibition of the following entry: CCCCCCC1(C)NC(c2ccc3c(c2)OCO3)=CC(c2ccccc2O)N1 (configuration not stated)
-18

Identify max response, negative = inhibition associated with the molecule Cc1ccc2nc(NC(=O)c3nc(SCc4ccccc4F)ncc3Cl)sc2c1
1.04

* * *

Target: Vitamin D3 receptor (Homo sapiens) (UniProt P11473)
Test: Inhibitors of the vitamin D receptor (VDR): qHTS; also: % is scaled to controls: 0 for no effect and ±100 for the full control effect
Details: VDR-SRC2-3 peptide fluorescence polarization, 2 h; active compounds read low
Description: The vitamin D receptor (VDR) is a ligand-activated transcription factor and is partially responsible for the regulation of the endocrine system. […] In a collaboration between the University of Wisconsin, Milwaukee and the NIH Chemical Genomics Center (NCGC) a HTS-compatible enzymatic assay was developed. The assay uses fluorescence polarization as its read-out to measure the inhibition between VDR and coregulator peptide SRC2-3 exerted by small molecules. […]
Screen size: about 400,000 compounds; about 3,700 (0.93%) were called active. Inconclusive results (about 3%) are left out. Only a selection was taken, and actives are over-represented in it overall.
READOUT_KIND: max response, negative = inhibition (%)
I only need the number, in %, no unit after it.

1) O=C(NC1CC(=O)N(c2ccc(F)cc2)C1)C1CCCCC1 (stereo unspecified)	-2.82

Consider the molecule CCn1cc(CCC(=O)NCc2ccc(F)cc2)c2ccccc21 and give its recorded max response, negative = inhibition.
-3.64

Retrieve max response, negative = inhibition measured for Cc1cccc(NC(=O)C2CCCN2S(=O)(=O)c2cccc3nsnc23)c1C (stereo unspecified) and print it.
-10.9

State its max response, negative = inhibition: O=C(NCCCc1ccccc1)c1ccc2c(c1)sc1nc(-c3ccc(F)cc3)cn12
9.26

* * *

Biological target: Vitamin D3 receptor (Homo sapiens) (UniProt P11473)
Assay: Inhibitors of the vitamin D receptor (VDR): qHTS; also: % is scaled to controls: 0 for no effect and ±100 for the full control effect
Settings: VDR-SRC2-3 peptide fluorescence polarization, 2 h; active compounds read low
Screen size: about 400,000 compounds; about 3,700 (0.93%) were called active. Another 3% or so got no clear call; they are omitted. Only a selection was taken, and actives are over-represented in it overall.
Entries and their measured max response, negative = inhibition follow.
Unit % implied. Number only.

Please review the entries below; each comes with its answer.
1) COc1ccc(CNC(=O)COCc2cc(-c3cccs3)on2)cc1OC	16.9
2) CCC(C)NC(=O)Cn1c(=O)n(-c2ccc(Cl)cc2)c(=O)c2c3c(sc21)CCCC3 (stereo not drawn)	7.47
3) Cc1cc(C)c(-c2n[nH]c3c2C(c2ccccc2F)N(CCO)C3=O)c(O)c1 (stereo not drawn)	7.23

Fill in: max response, negative = inhibition on Vitamin D3 receptor (Homo sapiens) (UniProt P11473), entry O=c1cc(O)c(-c2cccc(C(F)(F)F)c2)c(Cl)[nH]1
13.8

Consider the compound N#CC1=C(N)Oc2n[nH]c(CSc3ccccc3)c2C12C(=O)Nc1ccccc12 (stereo not drawn) tested on Vitamin D3 receptor (Homo sapiens) (UniProt P11473); state its max response, negative = inhibition.
12

Report max response, negative = inhibition from Vitamin D3 receptor (Homo sapiens) (UniProt P11473) testing of CCOC(=O)c1c(C)oc2nc(C)nc(N3CCN(c4ccc(OC)cc4)CC3)c12
5.63

Enter max response, negative = inhibition (test system Vitamin D3 receptor (Homo sapiens) (UniProt P11473)) for CCN1C(=O)c2ccccc2S(=O)c2ccc(C(=O)NCc3ccc(F)cc3)cc21 (stereo not drawn)
-17

For Vitamin D3 receptor (Homo sapiens) (UniProt P11473), give the measured max response, negative = inhibition of the entry CC(C)=CCN1CCC2(CCc3ccccc32)CC1
10

Lab note: Vitamin D3 receptor (Homo sapiens) (UniProt P11473) assay, enter max response, negative = inhibition for CC1CCN(C(=O)c2ccc3c(c2)NC(=O)CN3)CC1 here
8.33

Using Vitamin D3 receptor (Homo sapiens) (UniProt P11473) as the test system, report measured max response, negative = inhibition of COc1ccc(N2CCN(c3nc(-c4ccccc4F)nc4ccccc34)CC2)cc1 .
21.1

* * *

In this section we review reported max response, negative = inhibition values for a set of compounds.
Target: Vitamin D3 receptor (Homo sapiens)
Assay: Inhibitors of the vitamin D receptor (VDR): qHTS; also: % is scaled to controls: 0 for no effect and ±100 for the full control effect
Conditions: VDR-SRC2-3 peptide fluorescence polarization, 2 h; active compounds read low
The whole screen tested about 400,000 compounds, of which about 3,700 (0.93%) were called active. Not shown: some 3% with an inconclusive outcome. Shown is part of a subset that was picked to be rich in actives.
Field format: number, assumed %, no unit text.

Please review the following examples before continuing.
1) Nc1scc[n+]1Cc1cccc2cccnc12	4.69
2) CC[C@]1([C@H]2O[C@@H]([C@@H]3O[C@](O)(CO)[C@@H](C)C[C@H]3C)C[C@H]2C)CC[C@@H]([C@]2(C)CC[C@@]3(C[C@@H](O)[C@@H](C)[C@@H]([C@H](C)[C@H](OC)[C@H](C)C(=O)O)O3)O2)O1	3.44
3) CCOC(=O)c1c(C)[nH]c(CCC(=O)NCCCN2CCN(c3cc(C)ccc3C)CC2)c1C	1.52
4) O=c1c(=O)n(Cc2c(F)cccc2Cl)ccn1Cc1ccccc1	-1.19
5) COc1ccc(CCNC(=O)CCCn2c(=O)c3ccccc3n(Cc3ccc(C)cc3)c2=O)cc1OC	-9.82
6) c1ccc2c(CNn3cnnc3)cccc2c1	-17.7
7) COc1ccc(-c2nc(Cn3c(=O)cc(C)c4c(C)nn(-c5ccccc5)c43)c(C)o2)c(OC)c1	3.2
8) Cc1ccccc1NC(=O)Cn1c(=O)n(CCCCC(=O)NCc2ccccc2Cl)c(=O)c2ccccc21	-9.56

Now consider the entry below.
Identify the reported max response, negative = inhibition for the following entry. O=C1c2ccccc2C(=O)N1c1ccc(S(=O)(=O)N2CCOCC2)c2ccccc12
-4.23
